Measured MIC, listed per entry.
System: A. baumannii ATCC 19606
Test: MIC determination, broth microdilution, ESKAPE panel
Assay type: cell-based
Details: Acinetobacter baumannii, ATCC19606; iron-depleted cation-adjusted Mueller-Hinton broth, 2,2-dipyridyl 160 μM; 37° C., 18-20 hours; read-out: MIC A. baumannii ATCC 19606

[
  {
    "COMPOUND": "C[C@]1(/C=N/NC(=O)Cc2ccc(O)c(O)c2)[C@H](C(=O)O)N2C(=O)C[C@H]2S1(=O)=O [Example 20]",
    "MIC": "64 µg/mL"
  },
  {
    "COMPOUND": "C[C@]1(/C=N/NC(=O)C2CCN(C(=O)c3ccc(O)c(O)c3Cl)C2)[C@H](C(=O)O)N2C(=O)C[C@H]2S1(=O)=O (stereo partly shown) [Example 38]",
    "MIC": "8 µg/mL"
  },
  {
    "COMPOUND": "C[C@H](NC(=O)c1ccc(O)c(O)c1Cl)C(=O)N/N=C/[C@@]1(C)[C@H](C(=O)O)N2C(=O)C[C@H]2S1(=O)=O [Example 62]",
    "MIC": "4 µg/mL"
  },
  {
    "COMPOUND": "C[C@]1(/C=N/NC(=O)c2ccc(O)c(O)c2)[C@H](C(=O)O)N2C(=O)C[C@H]2S1(=O)=O [Example 5]",
    "MIC": "4 µg/mL"
  },
  {
    "COMPOUND": "C[C@]1(/C=N/NC(=O)C2CCN(C(=O)c3ccc(O)c(O)c3Cl)CC2)[C@H](C(=O)O)N2C(=O)C[C@H]2S1(=O)=O [Example 42]",
    "MIC": "1 µg/mL"
  },
  {
    "COMPOUND": "C[C@@H](O)[C@H]1C(=O)N2C(C(=O)O)=C(SCCN=CN)C[C@H]12 [Imipenem, reference compound]",
    "MIC": "0.25 µg/mL"
  },
  {
    "COMPOUND": "C[C@]1(/C=N/NC(=O)CNC(=O)c2ccc(O)c(O)c2)[C@H](C(=O)O)N2C(=O)C[C@H]2S1(=O)=O [Example 64]",
    "MIC": "8 µg/mL"
  }
]
